Cited source: PubChem BioAssay

assay: plasmodial surface anion channel blockers, osmotic lysis – cell-based, P. falciparum Indochina, OD700, 18 h, primary screen (AID 1157); conditions: P. falciparum Indochina infected erythrocytes, osmotic lysis OD700, 18 h; higher = more signal, called active from +8 up or from −8 down
Respond with 1 for z-score values of 0.3 and above, 0 for values below.

compound	label-value
C=C(CCCC)/C(=C/C[C@H](OC(=O)c1ccncc1)c1ccc(OCCO)cc1)c1cnc2ccccc2c1	1
COC(=O)[C@@]1(Cc2ccc(F)cc2)[C@H]2c3cc(C(=O)N(C)C)n(C)c3C[C@H]2CN1C(=O)c1ccccc1	1
COc1ccc(C(=O)Nc2ccc3c(c2)[C@@]2(O[C@H](CCO)[C@@H]([Si](C)(C)c4ccc(OC)cc4)[C@@H]2C)C(=O)N3Cc2ccccc2)cc1	0
O=C1C2C=CC(C(O)C3CCCCC3)N(n3cnnc3)C2C(=O)N1Cc1ccccc1 (stereo not drawn)	0

Item "CC(C)N1C(=O)c2ccccc2[C@@H](C(=O)NCC(F)(F)F)[C@@H]1c1ccc(CO)cc1" with z-score of 0.3 or above?
0

Item "CC(C)NC(=O)[C@@H]1c2ccccc2C(=O)N(Cc2ccccc2C(F)(F)F)[C@H]1c1ccc(CO)cc1" with z-score of 0.3 or above?
1

Item "C=CCNC(=O)[C@@H]1[C@H]2C(=O)O[C@H](c3ccccc3)[C@H](c3ccccc3)N2[C@H](c2ccc(OCCO)cc2)[C@@]12C(=O)Nc1ccc(C#CC3(O)CCCCCC3)cc12" with z-score of 0.3 or above?
0

====

target: Neurogenic locus notch homolog protein 3 (Homo sapiens) (UniProt Q9UM47); experiment: small molecules binding NOTCH3 protein – biochemical, 635/667 nm fluorescence, primary screen (AID 1096); settings: small-molecule microarray, 635 nm fluorescence, higher = more signal
Sequence (Q9UM47 whole entry, looked up): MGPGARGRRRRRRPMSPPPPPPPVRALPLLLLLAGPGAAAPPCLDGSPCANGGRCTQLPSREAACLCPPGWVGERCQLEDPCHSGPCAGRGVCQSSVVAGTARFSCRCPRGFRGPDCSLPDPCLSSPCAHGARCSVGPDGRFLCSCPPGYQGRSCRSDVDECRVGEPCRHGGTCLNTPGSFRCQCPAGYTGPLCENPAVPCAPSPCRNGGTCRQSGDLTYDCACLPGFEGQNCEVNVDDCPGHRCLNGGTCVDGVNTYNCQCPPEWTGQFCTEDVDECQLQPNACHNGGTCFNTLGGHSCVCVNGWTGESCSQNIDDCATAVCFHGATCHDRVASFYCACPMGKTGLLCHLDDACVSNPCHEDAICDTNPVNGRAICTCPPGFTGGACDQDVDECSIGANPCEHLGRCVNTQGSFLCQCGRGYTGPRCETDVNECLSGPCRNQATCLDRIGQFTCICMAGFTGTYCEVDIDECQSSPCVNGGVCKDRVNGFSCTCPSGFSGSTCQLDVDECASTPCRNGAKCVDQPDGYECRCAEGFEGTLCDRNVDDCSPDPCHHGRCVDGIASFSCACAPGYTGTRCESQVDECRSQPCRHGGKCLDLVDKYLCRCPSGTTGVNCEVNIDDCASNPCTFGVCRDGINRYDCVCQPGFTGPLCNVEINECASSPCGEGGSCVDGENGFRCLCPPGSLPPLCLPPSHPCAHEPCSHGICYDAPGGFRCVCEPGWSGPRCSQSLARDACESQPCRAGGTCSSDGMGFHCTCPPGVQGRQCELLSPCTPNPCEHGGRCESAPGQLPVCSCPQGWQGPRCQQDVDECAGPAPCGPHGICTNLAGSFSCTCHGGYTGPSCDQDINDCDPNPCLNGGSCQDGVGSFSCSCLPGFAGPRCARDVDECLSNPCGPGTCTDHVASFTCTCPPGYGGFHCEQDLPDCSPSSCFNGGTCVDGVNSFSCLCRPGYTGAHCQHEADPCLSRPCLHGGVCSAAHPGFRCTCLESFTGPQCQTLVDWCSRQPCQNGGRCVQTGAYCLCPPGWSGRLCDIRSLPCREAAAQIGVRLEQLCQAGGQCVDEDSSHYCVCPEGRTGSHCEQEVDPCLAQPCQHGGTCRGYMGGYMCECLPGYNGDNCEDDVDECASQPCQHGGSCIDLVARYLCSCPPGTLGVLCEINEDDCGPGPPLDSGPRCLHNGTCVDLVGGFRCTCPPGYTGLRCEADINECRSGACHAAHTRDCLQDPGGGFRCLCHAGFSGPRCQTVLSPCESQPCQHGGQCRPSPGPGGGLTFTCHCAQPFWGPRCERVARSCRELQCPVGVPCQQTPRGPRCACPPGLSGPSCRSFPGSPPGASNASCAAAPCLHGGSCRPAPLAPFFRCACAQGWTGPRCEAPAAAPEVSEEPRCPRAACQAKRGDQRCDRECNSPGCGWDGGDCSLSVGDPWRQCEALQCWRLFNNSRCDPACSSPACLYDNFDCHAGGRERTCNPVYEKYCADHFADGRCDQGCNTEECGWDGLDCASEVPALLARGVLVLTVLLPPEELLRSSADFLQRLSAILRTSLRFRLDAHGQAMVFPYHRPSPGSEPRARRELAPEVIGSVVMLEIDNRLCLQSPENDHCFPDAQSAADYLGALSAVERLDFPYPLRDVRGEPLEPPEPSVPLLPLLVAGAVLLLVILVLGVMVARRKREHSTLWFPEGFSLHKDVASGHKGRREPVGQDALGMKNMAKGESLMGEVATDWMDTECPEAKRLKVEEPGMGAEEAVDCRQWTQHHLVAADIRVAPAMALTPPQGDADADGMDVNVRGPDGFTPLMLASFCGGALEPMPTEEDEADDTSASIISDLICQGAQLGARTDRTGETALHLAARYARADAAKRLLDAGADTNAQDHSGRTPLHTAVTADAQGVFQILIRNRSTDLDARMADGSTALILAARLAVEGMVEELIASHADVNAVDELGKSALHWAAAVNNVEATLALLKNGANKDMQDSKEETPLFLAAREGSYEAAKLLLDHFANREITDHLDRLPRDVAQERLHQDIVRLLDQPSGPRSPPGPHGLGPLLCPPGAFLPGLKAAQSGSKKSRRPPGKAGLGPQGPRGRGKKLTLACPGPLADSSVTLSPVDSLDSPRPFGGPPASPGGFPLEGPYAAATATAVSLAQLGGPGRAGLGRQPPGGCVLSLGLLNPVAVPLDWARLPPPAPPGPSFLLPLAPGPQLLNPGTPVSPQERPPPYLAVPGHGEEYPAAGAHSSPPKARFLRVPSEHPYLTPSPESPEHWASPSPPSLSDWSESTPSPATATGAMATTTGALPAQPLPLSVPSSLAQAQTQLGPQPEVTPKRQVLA
Respond with t for composite z-score values of 0.8 and above, f for values below.

compound	label-value
C=C(CCCC)/C(=C/C[C@H](OC(=O)c1ccncc1)c1ccc(OCCO)cc1)c1cnc2ccccc2c1	t
N#Cc1ccc(-c2cccc(=O)o2)cc1	f
COC(=O)[C@H](Cc1ccc(O)cc1)N[C@@H](/C=C/C1CC1)[C@H](O)Cc1ccccc1	f
COC(=O)C[C@H]1O[C@@]2(C[C@@H]1[Si](C)(C)C)C(=O)N(C)c1ccccc12	f
COc1ccc([Si](C)(C)[C@H]2[C@H](CC(=O)N3Cc4ccccc4C[C@H]3CO)O[C@@]3(C(=O)N(C)c4ccccc43)[C@@H]2C)cc1	t
CN(C)c1ccc(C(O)C2C=CC3C(=O)N(Cc4ccccc4)C(=O)C3N2n2cnnc2)cc1 (stereo not drawn)	f

As a next step, examine the compound that follows.
Item "C=CCN1C(=O)[C@@]2(O[C@@H](CCn3cc([C@H](O)c4ccccc4)nn3)[C@H]([Si](C)(C)c3ccc(OC)cc3)[C@H]2C)c2cc(N3C(=O)c4cccc5cccc3c45)ccc21" with composite z-score of 0.8 or above?
f

====

test: probe aXIP binding to arrayed compounds – biochemical, NeuroSMM set, 635/667 nm fluorescence, primary screen (AID 1119); conditions: small-molecule microarray, higher = more signal, called active from +8 up or from −8 down;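 also: probe is the protein aXip251-270 applied at 1 µg/mL to compound-printed slides; binding of probe to printed compounds measured as 667 nm fluorescence plus signal to noise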
Respond with satisfied for composite Z-score values of 0.1 and above, not satisfied for values below.

compound	label-value
O=C1C2C=CC(C(O)C3CCCCC3)N(n3cnnc3)C2C(=O)N1Cc1ccccc1 (stereo not given)	satisfied
C[C@@H]1ON(c2ccccc2)[C@H](c2ccccc2)[C@H]1C(=O)O	not satisfied
CC(C)(C)OC(=O)CC[C@]1(C(=O)NCC(O)CO)N=C(c2ccc(OCCCO)cc2)O[C@H]1c1ccccc1N=[N+]=[N-] (stereo not given in full)	satisfied
O=C1NC(=O)C2C1C=CC(C(O)c1ccc(B(O)O)cc1)N2Nc1ccc(Cl)cc1Cl (stereo not given)	satisfied
CCOC(=O)C1=CC[C@@H](c2ccc(OC)cc2)N(S(=O)(=O)c2ccc(C)cc2)[C@H]1c1ccc(C)cc1	satisfied
CCCN1C(=O)[C@]2(CCC(=O)OC(C)(C)C)N=C(c3ccc(OCCCO)cc3)O[C@@H]2c2ccccc21	not satisfied
C=C(COC)C(=O)CC[C@@H](OC(C)=O)c1ccccc1OCCO	not satisfied
CCCCCCc1nc(-c2ccc(-c3ccc(Cl)c(Cl)c3)o2)cc2c1[Si](C(C)C)(C(C)C)OC2	not satisfied
O=C1O[C@H](c2ccccc2)[C@H](c2ccccc2)N2[C@H]1[C@@H](C(=O)O)[C@]1(C(=O)Nc3ccc(C#CCCO)cc31)[C@H]2c1ccc(OCCO)cc1	not satisfied
CC(C)N1C(=O)C[C@@](C(=O)NCCN2CCOCC2)(c2ccc([N+](=O)[O-])cc2)[C@H]1c1ccc(CO)cc1	satisfied

As a next step, examine the compound that follows.
Item "Cc1ccc(S[C@]2(C(=O)NC(C)C)CC(=O)N(C3CCCCC3)[C@@H]2c2ccc(CO)cc2I)cc1" with composite Z-score of 0.1 or above?
satisfied

====

experiment: forskolin-driven CRE-LacZ activity in PC12 – cell-based, CRE-LacZ reporter, forskolin-stimulated, primary screen (AID 1146); conditions: luminescence, 4.5 h, higher = more signal, called active from +8 up or from −8 down;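 also: PC12 cells with 6xCRE LacZ reporter stimulated by forskolin 10 µM; beta-galactosidase reporter signal reflecting CREB driven transcription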
For each of the compounds below, state its z-score.
Numbers only.

Please review the following examples before continuing.
compound	observed-property	quantitative-readout
CN(C)c1ccc(C(O)C2C=CC3C(=O)N(Cc4ccccc4)C(=O)C3N2n2cnnc2)cc1 (centres undefined)	z-score	-0.607
C=CCC(OC(C)=O)[C@@H]1[C@@H](N(Cc2cccc3ccccc23)C(=O)Cc2ccc(OC)cc2)c2cc(OCCCO)ccc2N1C(=O)c1ccc2ccccc2c1 (some centres undefined)	z-score	-0.383
O=C(NC1CC1)[C@@H]1c2ccccc2C(=O)N(Cc2cc(C(F)(F)F)cc(C(F)(F)F)c2)[C@H]1c1ccc(CO)cc1	z-score	-1.05

# per-item lookup of z-score; items listed below
1. CC1CC/C=C\[C@H]2OC34C=CCN(Cc5ccccc5)C(=O)[C@H]3N(CCCCCCO)C(=O)[C@@H]4C2C(=O)O1 (some centres undefined)
2. CCCC=C(CCC)[C@@H](NC(=O)c1ccc(C(F)(F)F)cc1)c1ccc(C(F)(F)F)cc1
3. COC(=O)C1=CC(CCCO)=CC(c2cccs2)N(Cc2cc3c(cc2Br)OCO3)C=C1C(=O)OC (centres undefined)
4. CCOC(=O)C[C@H]1[C@H](OC(=O)Cc2ccc3c(c2)OCO3)[C@@H](NC(=O)Cc2ccc(OC)cc2)c2cc(OCCCO)ccc2N1C(=O)Cc1ccc(OC)cc1
5. O=C(NCC(O)CO)C1N=C(c2ccc(OCCCO)cc2)N(c2ccccc2)O1 (centres undefined)
6. [N-]=[N+]=Nc1ccccc1[C@H]1OC(c2ccc(OCCCO)cc2)=N[C@@]1(Cc1ccccc1)C(=O)NCC(O)CO (some centres undefined)
7. N#Cc1ccc(C(O)C2C=CC3C(=O)NC(=O)C3N2Nc2ccc(Cl)cc2Cl)cc1 (centres undefined)

[0.138, 0.34, 0.458, -0.0811, -0.442, -1.2, -0.728]

# per-item lookup of z-score; items listed below
1. CN(C)CCCNC(=O)[C@@H]1c2ccccc2C(=O)N(Cc2ccccc2C(F)(F)F)[C@H]1c1ccc(CO)cc1
2. COCCOC(=O)N1C(=O)[C@@]2(c3cc(C#CCC(C(=O)OC)C(=O)OC)ccc31)[C@H](C(=O)Nc1nc3ccccc3s1)[C@H]1C(=O)O[C@H](c3ccccc3)[C@H](c3ccccc3)N1[C@@H]2c1ccc(O)cc1
3. CC(=O)OCC1C2CC[C@H]3C(OCc4ccc(F)cc4C(F)(F)F)OC[C@]4(C)[C@H]3C2=C(CN4C(=O)OC(C)(C)C)[C@H](C)C1COC(C)=O (some centres undefined)
4. C=C(COC)/C(=C/C[C@@H](OC(C)=O)c1ccccc1OCCO)c1cnc2ccccc2c1
5. Cc1ccc(N2C(=O)c3ccccc3[C@](C)(C(=O)NCCCN(C)C)[C@@H]2c2ccc(CO)cc2)nc1
6. COC(=O)[C@@]1(Cc2ccc(F)cc2)[C@H]2c3cc(C(=O)N4CCCC4)n(CCc4ccccn4)c3C[C@H]2CN1C(=O)c1ccccc1

1: -0.951; 2: 0.316; 3: 1.85; 4: 0.879; 5: 0.64; 6: 0.245

# per-item lookup of z-score; items listed below
1. CC(C)(C)N1CC=CC23O[C@@H]4C=CCCOC(=O)C4[C@H]2C(=O)N(CCCCCCO)[C@@H]3C1=O (some centres undefined)
2. Cc1ccc(S[C@]2(C(=O)NC3CC3)CC(=O)N(C(C)C)[C@@H]2c2ccc(CO)cc2I)cc1
3. COc1ccc([Si](C)(C)[C@@H]2[C@@H](CC(=O)N3Cc4ccccc4C[C@H]3CO)O[C@]3(C(=O)N(Cc4cccc(N5CCOC5=O)c4)c4ccccc43)[C@H]2C)cc1
4. CN(C)C(=O)[C@]1(Cc2ccccc2)N=C(c2ccc(OCCCO)cc2)O[C@@H]1c1ccccc1CN=[N+]=[N-]
5. COCCOC(=O)N1C(=O)[C@@]2(c3cc(C#CC4(O)CCCCCC4)ccc31)[C@H](c1ccc(O)cc1)N1[C@H](c3ccccc3)[C@H](c3ccccc3)OC(=O)[C@H]1[C@@H]2C(=O)N1CCCCCCC1
6. COc1cc(CO)cc(I)c1O[C@H]1C=C(C(=O)NCCO)C[C@@H](NC2CCCCCC2)[C@@H]1O

1. -0.254
2. 1.42
3. -0.318
4. 2.45
5. -0.125
6. 0.0453
